target: JAK3 (Homo sapiens, UniProt P52333)
Sequence (P52333 1-1124): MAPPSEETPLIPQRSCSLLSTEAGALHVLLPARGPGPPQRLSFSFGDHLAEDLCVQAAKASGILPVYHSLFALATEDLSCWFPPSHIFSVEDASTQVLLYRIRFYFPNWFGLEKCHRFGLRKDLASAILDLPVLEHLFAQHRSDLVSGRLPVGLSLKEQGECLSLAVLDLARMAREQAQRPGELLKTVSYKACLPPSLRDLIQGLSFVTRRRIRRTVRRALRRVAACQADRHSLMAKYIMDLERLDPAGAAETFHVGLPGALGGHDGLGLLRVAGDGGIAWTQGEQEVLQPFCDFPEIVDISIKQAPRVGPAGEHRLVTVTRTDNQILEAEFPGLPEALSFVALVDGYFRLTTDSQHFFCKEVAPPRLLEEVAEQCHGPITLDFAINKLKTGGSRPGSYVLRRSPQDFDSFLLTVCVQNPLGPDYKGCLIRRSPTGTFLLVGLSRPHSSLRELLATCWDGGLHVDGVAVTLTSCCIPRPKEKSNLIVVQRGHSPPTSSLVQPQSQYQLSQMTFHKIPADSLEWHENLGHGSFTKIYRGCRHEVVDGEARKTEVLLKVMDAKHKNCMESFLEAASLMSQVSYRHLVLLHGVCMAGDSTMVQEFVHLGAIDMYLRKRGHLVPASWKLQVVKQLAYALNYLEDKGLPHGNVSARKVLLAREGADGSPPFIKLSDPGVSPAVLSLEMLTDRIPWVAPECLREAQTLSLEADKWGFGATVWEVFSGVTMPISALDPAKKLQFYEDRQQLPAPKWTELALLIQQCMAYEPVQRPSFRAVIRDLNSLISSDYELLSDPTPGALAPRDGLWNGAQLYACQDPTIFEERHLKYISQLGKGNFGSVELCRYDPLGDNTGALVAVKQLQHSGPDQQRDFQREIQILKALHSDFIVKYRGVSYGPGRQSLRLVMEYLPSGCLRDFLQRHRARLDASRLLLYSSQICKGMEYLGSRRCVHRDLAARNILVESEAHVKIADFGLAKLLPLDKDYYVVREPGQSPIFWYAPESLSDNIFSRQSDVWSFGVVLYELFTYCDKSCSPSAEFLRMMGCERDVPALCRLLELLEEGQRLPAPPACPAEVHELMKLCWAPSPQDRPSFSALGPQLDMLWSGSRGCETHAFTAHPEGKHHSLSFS
readout-name: Ki

Consider the following illustrative entries.
O=C(Nc1nc(-c2ncnc3[nH]ccc23)cs1)C(O)c1ccccc1 (stereo not drawn) = < 100 nM
CCN(Cc1ccncc1)C(=O)c1cc(-c2ncnc3[nH]ccc23)c[nH]1 = < 100 nM
Cn1cc(-c2ncnc3[nH]ccc23)cc1C(=O)N(CCC#N)CC1CC1 = < 100 nM
N#CCN(Cc1cccc(Cl)c1)C(=O)c1cc(-c2ncnc3[nH]ccc23)c[nH]1 = < 100 nM
CCC1CC[C@@H](CC)N1C(=O)c1cc(-c2ncnc3[nH]ccc23)c[nH]1 (stereo partly drawn) = 100 to 500 nM
CC(=O)NCCCC(=O)Nc1nc(-c2ncnc3[nH]ccc23)cs1 = 100 to 500 nM
O=C(Nc1nc(-c2ncnc3[nH]ccc23)cs1)C1CC=CC1 = < 100 nM
CC(O)CNC(=O)C(C)n1cc(-c2ncnc3[nH]ccc23)cn1 (stereo not drawn) = 100 to 500 nM

Lab note: next compound to report on.
Give a short answer stating reported Ki for `O=C(c1cc(-c2ncnc3[nH]ccc23)co1)N(CC1CC1)CC(F)(F)F` . < 100 nM
